Parameter IC50, rec. human IL-1 B, MRC-5 (IL-6 production): see the listing below.
# assayedSystem: recombinant human IL-1B (human, UniProt P01584 117-269)
# assayExplanation: cell-based or functional assay
reportedMetric: IC50, rec. human IL-1 B, MRC-5 (IL-6 production) (nM)

# binder, measurementUnit, measuredNumber
rows = [
    ("Antibody B4 (antibody, V domains shown) VH: EVQLVQSGAEVKKPGASVKVSCKASGFSFTGYYMHWVRQAPGQGLEWVGLIIPHNDYTVNNQKFKGRVTMTRDTSTSTAYMELSSLRSEDTAVYYCARSDYYGAMDYWGQGTLVTVSS VL: EIVMTQSPATLSVSPGERATLSCRASQNIGTSIHWYQQKPGQAPRLLIKYASDSKDGIPARFSGSGSGTEFTLTISSLQSEDIAVYYCQQGASWPPFTFGQGTKLEIK", "nM", 0.018),
    ("Antibody A1 (antibody, V domains shown) VH: QVQLVQSGAEVKKPGASVKVSCKATGYTFTNYWIAWVKQAPGQGLEWMGSIFPGGDYTNYNEKFKGKVTMTRDTSTSTSYMELSSLRSEDTAVYYCARPYYSNYGHFDYWGQGTLVTVSS VL: EIVLTQSPATLSLSPGERATLSCRASESVDNSGIGFMNWYQQKPGQAPKLLIYAASNQGSGIPARFSGSGSGTDFTLTISRLEPEDFAMYYCQQNKELPWTFGGGTKLEIK", "nM", 0.01),
    ("Antibody A3 (antibody, V domains shown) VH: QVQLVQSGAEVKKPGASVKVSCKATGYTFTDYWIAWVRQAPGQGLEWMGSIFPGGDYTNYNEKFKGRVTMTRDTSTSTSYMELSSLRSEDTAIYYCARPYYSNYGHFDYWGQGTLVTVSS VL: EIILTQFPATLSLSPGERATISCRASESVDNSGIGFMNWYQQKPGQAPRLLIYAASNQGSGIPARFSGSGSGTDFTLTISRLEPEDFAVYYCQQNKELPWTFGQGTKLEIK", "nM", 0.013),
]
